In this section we review reported % inhibition of SMAD7 mRNA expression values for a set of substances.
Tested on: human SMAD7 mRNA
Experiment: Antisense inhibition of human SMAD7 mRNA expression in Hep3B cells by 3-10-3 cEt gapmers, 10,000 nM, electroporation (Example 2)
Assay type: cell-based
Conditions: Hep3B cells, electroporation, 10,000 nM, approximately 24 hours; 3-10-3 cEt gapmers targeting SEQ ID NO: 3 and 4
Strand notation (5' to 3'): a small letter for the sugar, then the base; units joined by * are phosphorothioate-linked, units joined directly phosphodiester-linked; [ ] holds rarer units or linkages, { } end groups; capitals alone tell only the bases. k = constrained ethyl (cEt); [5mC] = 5-methylcytosine; d = 2'-deoxy (DNA)
# number only, unit % dropped from output

790634 (kA*kG*kT*d[5mC]*dA*dG*dT*dT*dG*dG*dT*dT*dT*kG*kA*kG; antisense) [compound 790634]	0

// moving on: another record for % inhibition of SMAD7 mRNA expression
(Q) For the substance 799268 (antisense kT*k[5mC]*k[5mC]*dA*dG*dT*dT*d[5mC]*dG*dG*d[5mC]*d[5mC]*dT*kT*k[5mC]*k[5mC]) [compound 799268] , what % inhibition of SMAD7 mRNA expression is on record?
(A) 24

* * *

Tested on: human SMAD7 mRNA
Experiment: Antisense inhibition of human SMAD7 mRNA expression in Hep3B cells by 3-10-3 cEt gapmers, 10,000 nM, electroporation (Example 2)
Type: cell-based
Settings: SMAD7 mRNA, Hep3B cells, 10,000 nM antisense oligonucleotide, electroporation, approximately 24 hours, primer probe set RTS5062, relative to untreated control cells
Strand notation (5' to 3'): a small letter for the sugar, then the base; units joined by * are phosphorothioate-linked, units joined directly phosphodiester-linked; [ ] holds rarer units or linkages, { } end groups; capitals alone tell only the bases. k = constrained ethyl (cEt); [5mC] = 5-methylcytosine; d = 2'-deoxy (DNA)
In this section we review reported % Inhibition values for a set of substances.
Respond with a number, then the unit of measure.

Record excerpt, results attached:
829767 (antisense kG*kG*kA*dG*dG*d[5mC]*dA*d[5mC]*dG*d[5mC]*dG*dG*dT*kG*k[5mC]*kG) [compound 829767]	66%
800793 (antisense kT*kG*kA*d[5mC]*dT*d[5mC]*dT*dT*dG*dT*dT*dG*dT*k[5mC]*k[5mC]*kG) [compound 800793]	53%
790611 (kG*k[5mC]*kT*dT*dA*dT*dG*dT*dT*dA*dA*dA*dG*kT*k[5mC]*kT; antisense) [compound 790611]	59%

// moving on: another record for % Inhibition
(Q) For the substance 829731 (antisense kA*kG*k[5mC]*dA*dG*dG*d[5mC]*dG*d[5mC]*dA*dG*dG*d[5mC]*kG*kA*k[5mC]) [compound 829731] , what % Inhibition is on record?
(A) 50%

* * *

System: human SMAD7 mRNA
Experiment: Dose-dependent inhibition of human SMAD7 mRNA expression in Hep3B cells (Example 3, Study 1 and 2)
Type: cell-based
Settings: 1250.0 nM, electroporation, approximately 16 hours, Study 1
Strand notation (5' to 3'): a small letter for the sugar, then the base; units joined by * are phosphorothioate-linked, units joined directly phosphodiester-linked; [ ] holds rarer units or linkages, { } end groups; capitals alone tell only the bases. e = 2'-O-(2-methoxyethyl) (MOE); [5mC] = 5-methylcytosine; d = 2'-deoxy (DNA)
In this section we review reported % inhibition of SMAD7 mRNA expression values for a set of substances.
# number only, unit % dropped from output

771822 (antisense e[5mC]*eA*e[5mC]*e[5mC]*eA*dA*dA*dA*d[5mC]*dA*dA*dG*dT*dG*dT*e[5mC]*eT*eA*e[5mC]*e[5mC]) [compound 771822]	0
771387 (antisense eA*eG*e[5mC]*eA*eT*d[5mC]*dT*dG*dG*dA*d[5mC]*dA*dG*dT*d[5mC]*eT*eG*e[5mC]*eT*eG) [compound 771387]	13
771663 (antisense eT*eT*e[5mC]*e[5mC]*eA*dA*dT*dG*dA*dG*dA*dA*dT*dG*d[5mC]*eT*eT*e[5mC]*eT*e[5mC]) [compound 771663]	24

(Q) For the substance 771441 (e[5mC]*eG*eA*eG*eG*dG*d[5mC]*dG*dG*d[5mC]*dT*dG*d[5mC]*dG*d[5mC]*eA*eG*eG*e[5mC]*eT; antisense) [compound 771441] , what % inhibition of SMAD7 mRNA expression is on record?
(A) 5

(Q) Try this substance too: 771581 (antisense eG*eG*eG*eA*e[5mC]*d[5mC]*d[5mC]*d[5mC]*dA*dG*d[5mC]*d[5mC]*dG*d[5mC]*d[5mC]*eA*eG*e[5mC]*eT*eT) [compound 771581]
(A) 0

* * *

Tested on: human SMAD7 mRNA
Assay: Dose-dependent inhibition of human SMAD7 mRNA expression in Hep3B cells (Example 3, Study 1 and 2)
Format: cell-based
Settings: 20000.0 nM, electroporation, approximately 16 hours, Study 2
Strand notation (5' to 3'): a small letter for the sugar, then the base; units joined by * are phosphorothioate-linked, units joined directly phosphodiester-linked; [ ] holds rarer units or linkages, { } end groups; capitals alone tell only the bases. k = constrained ethyl (cEt); [5mC] = 5-methylcytosine; d = 2'-deoxy (DNA)
Where % inhibition of SMAD7 mRNA expression equals or exceeds 80%, the correct label is Y; where it does not, the label is N.

Some entries whose results are on file:
799429 (antisense k[5mC]*kA*k[5mC]*dA*dA*dG*dT*d[5mC]*dA*d[5mC]*dA*dA*d[5mC]*kT*kG*kG) [compound 799429]	N
830099 (kG*k[5mC]*k[5mC]*dT*dT*dT*dG*dG*dA*dA*dT*dT*dA*kG*kT*kA; antisense) [compound 830099]	Y
799118 (antisense kA*kG*kA*dG*d[5mC]*dT*dT*dA*dA*d[5mC]*dA*d[5mC]*dA*k[5mC]*kA*kG) [compound 799118]	N
799753 (antisense k[5mC]*kG*kT*dG*dA*dG*dT*dA*dA*dA*dT*dT*d[5mC]*kT*kT*kA) [compound 799753]	N

(Q) Item 799755 (antisense kG*kA*kA*dA*dG*dT*dT*dA*d[5mC]*dA*dG*dA*dA*k[5mC]*kT*k[5mC]) [compound 799755] with % inhibition of SMAD7 mRNA expression of 80% or above?
(A) N

(Q) Try this substance too: 830142 (antisense kT*kG*kT*dG*d[5mC]*dA*d[5mC]*d[5mC]*dA*dG*dG*dT*dG*kA*kG*k[5mC]) [compound 830142]
(A) N

(Q) Try this substance too: 799607 (k[5mC]*k[5mC]*kA*dT*dT*dT*dA*d[5mC]*dA*dA*dA*dA*d[5mC]*kT*k[5mC]*kT; antisense) [compound 799607]
(A) N

(Q) Try this substance too: 830168 (antisense kA*kT*kG*d[5mC]*dT*dT*dT*dT*dA*d[5mC]*dA*d[5mC]*dA*k[5mC]*k[5mC]*k[5mC]) [compound 830168]
(A) N

(Q) Try this substance too: 799564 (k[5mC]*kA*kG*dA*dT*dA*dA*d[5mC]*dA*dG*dA*dG*dT*kA*kT*kA; antisense) [compound 799564]
(A) N

(Q) Try this substance too: 830137 (antisense kA*kT*kG*dA*dA*dA*dG*dT*dA*d[5mC]*dA*dA*dT*k[5mC]*kT*k[5mC]) [compound 830137]
(A) Y

* * *

Test: Hematology assays after subcutaneous administration in CD-1 mice (Example 6)
Format: in vivo
Design: unit not given here
Details: 50 mg/kg subcutaneous twice weekly for 7 weeks
Strand notation (5' to 3'): a small letter for the sugar, then the base; units joined by * are phosphorothioate-linked, units joined directly phosphodiester-linked; [ ] holds rarer units or linkages, { } end groups; capitals alone tell only the bases. k = constrained ethyl (cEt); [5mC] = 5-methylcytosine; d = 2'-deoxy (DNA)
In this section we review reported Monocytes values for a set of substances.
Just the number, please, no unit attached.

799144 (antisense kT*kT*kG*dG*dG*dT*dT*dA*dT*dG*dA*d[5mC]*dG*kG*kA*k[5mC]) [compound 799144]	4.9
830121 (AGAATCAAGCCCTGGC; 3-10-3 cEt gapmer, further chemistry not given here) [compound 830121]	5.1

// moving on: another record for Monocytes
(Q) For the substance 790615 (CCAATGAGAATGCTTC; 3-10-3 cEt gapmer, further chemistry not given here) [compound 790615] , what Monocytes is on record?
(A) 5.0

* * *

Tested on: human SMAD7 mRNA
Test: Antisense inhibition of human SMAD7 mRNA expression in Hep3B cells by 3-10-3 cEt gapmers, 10,000 nM, electroporation (Example 2)
Type: cell-based
Settings: Hep3B cells, electroporation with 10,000 nM antisense oligonucleotide, approximately 24 hours, primer probe set RTS5062, relative to untreated control cells
Strand notation (5' to 3'): a small letter for the sugar, then the base; units joined by * are phosphorothioate-linked, units joined directly phosphodiester-linked; [ ] holds rarer units or linkages, { } end groups; capitals alone tell only the bases. k = constrained ethyl (cEt); [5mC] = 5-methylcytosine; d = 2'-deoxy (DNA)
In this section we review reported % inhibition of SMAD7 mRNA expression values for a set of substances.
# number only, unit % dropped from output

Record excerpt, results attached:
772555 (antisense kA*kG*kG*d[5mC]*dA*d[5mC]*dG*d[5mC]*dG*dG*dT*dG*d[5mC]*kG*k[5mC]*kG) [compound 772555]	23
799345 (k[5mC]*kG*kA*dG*dA*dA*dG*d[5mC]*d[5mC]*d[5mC]*dA*dG*dG*k[5mC]*k[5mC]*k[5mC]; antisense) [compound 799345]	20
798787 (kG*kA*kG*dA*d[5mC]*dT*d[5mC]*dT*dA*dG*dT*dT*d[5mC]*kG*k[5mC]*kA; antisense) [compound 798787]	20
799462 (antisense kA*kA*kG*d[5mC]*dA*d[5mC]*dT*dA*dG*dG*dT*dT*d[5mC]*kT*kG*k[5mC]) [compound 799462]	43
799263 (antisense kT*k[5mC]*k[5mC]*dA*dA*d[5mC]*dT*d[5mC]*dT*d[5mC]*dT*dT*dT*kG*k[5mC]*k[5mC]) [compound 799263]	0

(Q) For the substance 799065 (antisense kA*kA*kA*dT*dA*dA*dT*dT*dG*dG*dT*dT*d[5mC]*kT*kG*kG) [compound 799065] , what % inhibition of SMAD7 mRNA expression is on record?
(A) 35

(Q) Try this substance too: 799464 (antisense kA*kA*kG*d[5mC]*dA*d[5mC]*dT*dT*dG*dG*dT*dA*dA*kG*k[5mC]*kA) [compound 799464]
(A) 40
